Assay: isobaric coefficient of expansion
Conditions: 348.15 K; 40000 kPa; Liquid; DSC with Pressure Shift
QUANTITY MEASURED: isobaric coefficient of expansion

# COMPOUND, ENDPOINT RESULT
measured = [
    ("CCCO", "0.000927 1/K"),
    ("CCCC(C)O (stereo unspecified)", "0.00097 1/K"),
    ("CCCCCCCCCO", "0.000749 1/K"),
    ("CCCCCCCCCCO", "0.000738 1/K"),
    ("CCCCCCO", "0.000808 1/K"),
    ("CCCCCO", "0.000826 1/K"),
    ("CCCCCN", "0.000972 1/K"),
    ("CCCCCCCO", "0.000786 1/K"),
    ("CCO", "0.000984 1/K"),
    ("CCCCCCCCO", "0.000762 1/K"),
    ("CCC(O)CC", "0.00101 1/K"),
]

====

Assay: isobaric coefficient of expansion
Settings: 348.15 K; 30000 kPa; Liquid; DSC with Pressure Shift
In this section we review reported isobaric coefficient of expansion values for a set of molecules.

# MOLECULE, isobaric coefficient of expansion
data = [
    ("CCCCCCO [hexan-1-ol]", "0.000852 1/K"),
    ("CCO [ethanol]", "0.00105 1/K"),
    ("CCCCCCCO [heptan-1-ol]", "0.000826 1/K"),
]

====

Assay: isobaric coefficient of expansion
Settings: 298.15 K; 5000 kPa; Liquid; DSC with Pressure Shift

# MOLECULE, isobaric coefficient of expansion
records = [
    ("CCCCCCCO", "0.000831 1/K"),
    ("CCC(O)CC", "0.000971 1/K"),
    ("CCCCCCO", "0.00085 1/K"),
    ("CCCCCO", "0.000889 1/K"),
    ("CCCC(C)O (stereo unspecified)", "0.000961 1/K"),
    ("CCCCCCCCCO", "0.000816 1/K"),
    ("CCCCCCCCO", "0.000818 1/K"),
    ("CCO", "0.00106 1/K"),
    ("CCCCCCCCCCO", "0.000809 1/K"),
    ("CCCCCN", "0.00112 1/K"),
    ("CCCO", "0.000967 1/K"),
]

====

The entries below come with measured isobaric coefficient of expansion values attached.
Experiment: isobaric coefficient of expansion
Conditions: 348.15 K; 55000 kPa; Liquid; DSC with Pressure Shift

# MOLECULAR STRING, isobaric coefficient of expansion
rows = [
    ("CCCCCCCCCO", "0.000705 1/K"),
    ("CCCCCCCCO", "0.000717 1/K"),
    ("CCCCCCO", "0.000754 1/K"),
]

====

Assay: isobaric coefficient of expansion
Settings: 348.15 K; 25000 kPa; Liquid; DSC with Pressure Shift
isobaric coefficient of expansion: recorded values

# COMPOUND, isobaric coefficient of expansion
data = [
    ("CCCCCCCO", "0.000848 1/K"),
    ("CCCCCCO", "0.000875 1/K"),
    ("CCCC(C)O (stereo unspecified)", "0.00105 1/K"),
    ("CCCCCO", "0.000899 1/K"),
    ("CCC(O)CC", "0.00108 1/K"),
    ("CCCCCCCCCO", "0.000806 1/K"),
    ("CCCO", "0.00101 1/K"),
    ("CCO", "0.00108 1/K"),
    ("CCCCCN", "0.00106 1/K"),
    ("CCCCCCCCCCO", "0.000792 1/K"),
    ("CCCCCCCCO", "0.000821 1/K"),
]

====

Below, each entry is listed with its recorded isobaric coefficient of expansion.
Assay: isobaric coefficient of expansion
Details: 288.15 K; 25000 kPa; Liquid; DSC with Pressure Shift

# MOLECULE, isobaric coefficient of expansion
rows = [
    ("CCC(O)CC", "0.000868 1/K"),
    ("CCCCCCCO", "0.000757 1/K"),
    ("CCCCCCCCCO", "0.000743 1/K"),
    ("CCCC(C)O (stereo not given)", "0.000842 1/K"),
    ("CCCCCCO", "0.000772 1/K"),
    ("CCCCCN", "0.00102 1/K"),
    ("CCCO", "0.000867 1/K"),
    ("CCO", "0.000936 1/K"),
    ("CCCCCCCCO", "0.000746 1/K"),
    ("CCCCCO", "0.000795 1/K"),
]

====

Experiment: isobaric coefficient of expansion
Conditions: 298.15 K; 25000 kPa; Liquid; DSC with Pressure Shift
Here the recorded isobaric coefficient of expansion is given for each entry.

# COMPOUND, isobaric coefficient of expansion
rows = [
    ("CCCCCN", "0.00102 1/K"),
    ("CCCCCCO", "0.00078 1/K"),
    ("CCCCCO", "0.000805 1/K"),
    ("CCC(O)CC", "0.000899 1/K"),
    ("CCCO", "0.000877 1/K"),
    ("CCCCCCCO", "0.000762 1/K"),
    ("CCO", "0.000952 1/K"),
    ("CCCC(C)O (stereo unspecified)", "0.000872 1/K"),
    ("CCCCCCCCCCO", "0.000739 1/K"),
    ("CCCCCCCCO", "0.000749 1/K"),
    ("CCCCCCCCCO", "0.000745 1/K"),
]

====

Here, each record is paired with measured isobaric coefficient of expansion data.
Experiment: isobaric coefficient of expansion
Settings: 278.15 K; 15000 kPa; Liquid; DSC with Pressure Shift
QUANTITY MEASURED: isobaric coefficient of expansion

# COMPOUND, QUANTITY MEASURED, ENDPOINT RESULT
rows = [
    ("CCCCCCO [hexan-1-ol]", "isobaric coefficient of expansion", "0.000788 1/K"),
    ("CCC(O)CC [3-pentanol]", "isobaric coefficient of expansion", "0.000861 1/K"),
    ("CCCCCO [pentan-1-ol]", "isobaric coefficient of expansion", "0.000826 1/K"),
    ("CCCC(C)O (stereo not given) [pentan-2-ol]", "isobaric coefficient of expansion", "0.00084 1/K"),
    ("CCCCCCCCO [octan-1-ol]", "isobaric coefficient of expansion", "0.00078 1/K"),
    ("CCCCCCCO [heptan-1-ol]", "isobaric coefficient of expansion", "0.000767 1/K"),
    ("CCCCCN [1-pentanamine]", "isobaric coefficient of expansion", "0.00105 1/K"),
    ("CCCCCCCCCO [nonan-1-ol]", "isobaric coefficient of expansion", "0.000786 1/K"),
    ("CCCO [propan-1-ol]", "isobaric coefficient of expansion", "0.000883 1/K"),
    ("CCO [ethanol]", "isobaric coefficient of expansion", "0.000966 1/K"),
]

====

Test: isobaric coefficient of expansion
Conditions: 278.15 K; 30000 kPa; Liquid; DSC with Pressure Shift
// reported isobaric coefficient of expansion for each item listed

# MOLECULE, isobaric coefficient of expansion
rows = [
    ("CCO [ethanol]", "0.000908 1/K"),
    ("CCCCCCCCO [octan-1-ol]", "0.00073 1/K"),
    ("CCCCCCCO [heptan-1-ol]", "0.000726 1/K"),
    ("CCCCCCO [hexan-1-ol]", "0.000748 1/K"),
    ("CCCCCO [pentan-1-ol]", "0.000778 1/K"),
    ("CCCO [propan-1-ol]", "0.000834 1/K"),
    ("CCCC(C)O (stereo not given) [pentan-2-ol]", "0.000789 1/K"),
    ("CCCCCN [1-pentanamine]", "0.000988 1/K"),
    ("CCC(O)CC [3-pentanol]", "0.000814 1/K"),
    ("CCCCCCCCCO [nonan-1-ol]", "0.000733 1/K"),
]

====

Assay: isobaric coefficient of expansion
Conditions: 318.15 K; 5000 kPa; Liquid; DSC with Pressure Shift
Parameter isobaric coefficient of expansion: see the listing below.
QUANTITY MEASURED: isobaric coefficient of expansion

# COMPOUND, ENDPOINT RESULT
records = [
    ("CCCCCCCCO", "0.000859 1/K"),
    ("CCCCCCCCCO", "0.000846 1/K"),
    ("CCCCCO", "0.000934 1/K"),
    ("CCCCCCCO", "0.000878 1/K"),
    ("CCCC(C)O (stereo unspecified)", "0.00106 1/K"),
    ("CCCCCCO", "0.000898 1/K"),
    ("CCO", "0.00112 1/K"),
    ("CCCCCN", "0.00116 1/K"),
    ("CCCO", "0.00104 1/K"),
    ("CCCCCCCCCCO", "0.000837 1/K"),
    ("CCC(O)CC", "0.00106 1/K"),
]

Recorded values, source the NIST ThermoML archive (doi:10.1016/j.jct.2009.07.002).
